- measured_on: Biotinylated 2019-nCoV (COVID-19) S1 protein (16-685), His, Avitag (SARS-CoV-2), P0DTC2
- assay_method_text: SPR, Biacore T200, geomean
measure: Kd (nM)
Provide only the numeric value, understood in nM.

If you can, please state the reported Kd value of CRNPDNPVCRFYC (modifications not checked) [BCY16905] . 10
